Assay: clinical
Conditions: human, in vivo, 250 mg, Half-Life
Measured Attribute: half-life (h)

Compound	Scale Unit	Test Value
O=C(O)C[C@@H]1CC[C@H](NC(=O)Cc2cccs2)B(O)O1 [Compound I]	h	1.18

* * *

Test: Plasma protein binding
Format: in vitro ADME
Details: human

Compound Structure	fraction unbound
C[C@@H](O)[C@H]1C(=O)N2C(C(=O)O)=C(S[C@@H]3CN[C@H](C(=O)N(C)C)C3)[C@H](C)[C@H]12	0.98

* * *

Experiment: Example 6: noncompartmental plasma pharmacokinetics after third dose of the Combination (2 g meropenem/2 g Compound I q8h)
Conditions: both, human, plasma, intravenous, CL, meropenem 2 g q8h, 3.25-hour BAL Sampling Group

Compound Structure	clearance / mL/min
C[C@@H](O)[C@H]1C(=O)N2C(C(=O)O)=C(S[C@@H]3CN[C@H](C(=O)N(C)C)C3)[C@H](C)[C@H]12	185

* * *

Assay: Example 6: noncompartmental plasma pharmacokinetics after third dose of the Combination (2 g meropenem/2 g Compound I q8h)
Conditions: both, human, plasma, intravenous, Tmax, meropenem 2 g q8h, 1.5-hour BAL Sampling Group

Compound Structure	Tmax (h)
C[C@@H](O)[C@H]1C(=O)N2C(C(=O)O)=C(S[C@@H]3CN[C@H](C(=O)N(C)C)C3)[C@H](C)[C@H]12	2.95

* * *

Assay: clinical
Details: human, in vivo, Plasma Clearance

Compound	clearance, mL/min
C[C@@H](O)[C@H]1C(=O)N2C(C(=O)O)=C(S[C@@H]3CN[C@H](C(=O)N(C)C)C3)[C@H](C)[C@H]12 [meropenem, Meropenem]	334

* * *

Assay: clinical
Conditions: both, human, in vivo, Ratio ELF to Plasma (total plasma concentration)

Compound Structure	Kp at 4 h
O=C(O)C[C@@H]1CC[C@H](NC(=O)Cc2cccs2)B(O)O1	0.57

* * *

Assay: clinical
Conditions: both, human, in vivo, Concentration in Plasma
Measured Attribute: concentration at 6 h

Compound Structure	Test Value
C[C@@H](O)[C@H]1C(=O)N2C(C(=O)O)=C(S[C@@H]3CN[C@H](C(=O)N(C)C)C3)[C@H](C)[C@H]12	7.24 µg/mL

* * *

Assay: Example 6: noncompartmental plasma pharmacokinetics after third dose of the Combination (2 g meropenem/2 g Compound I q8h)
Settings: both, human, plasma, intravenous, AUC0-8, Compound I 2 g q8h, All Subjects

Compound Structure	Scale Unit	AUC(0-t)
O=C(O)C[C@@H]1CC[C@H](NC(=O)Cc2cccs2)B(O)O1	µg·h/mL	204

* * *

Experiment: Example 1: pharmacokinetics of Compound I, single (SD) and multiple (MD, q8h 7 days) ascending doses, 3-hour IV infusion, healthy adult subjects
Type: in vivo, human
Conditions: human, plasma and urine, intravenous, 1000 mg, 1000 mg multiple dose

Molecule	CL renal
O=C(O)C[C@@H]1CC[C@H](NC(=O)Cc2cccs2)B(O)O1 [Compound I]	195 mL/min

* * *

Test: clinical
Conditions: both, human, in vivo, Ratio of ELF to total Plasma concentration
Measured Attribute: Kp at 6 h

Molecule	Measured Attribute	Test Value
C[C@@H](O)[C@H]1C(=O)N2C(C(=O)O)=C(S[C@@H]3CN[C@H](C(=O)N(C)C)C3)[C@H](C)[C@H]12 [meropenem, Meropenem]	Kp at 6 h	1.04

* * *

Test: clinical
Settings: both, human, in vivo, ELF concentration at time of bronchoscopy and BAL

Molecule	concentration at 1.5 h [ng/mL]
O=C(O)C[C@@H]1CC[C@H](NC(=O)Cc2cccs2)B(O)O1 [Compound I]	18600
